system: K562; experiment: Cytotoxicity against human K562 cells after 5 days by MTT assay; format: functional, cell-based; details: K562, 120 h
ATTRIBUTE_MEASURED: IC50

Reported IC50 for COc1ccc(-c2cn(Cc3cc(OC)c(OC)c(OC)c3)nn2)cc1Br was > 10 µM

Next:
Reported IC50 for COc1ccc(Cn2cc(-c3cc(OC)c(OC)c(OC)c3)nn2)cc1[N+](=O)[O-] was > 10 µM

Reported IC50 for COc1ccc(-c2cnnn2Cc2cc(OC)c(OC)c(OC)c2)cc1 was 5.56 µM

Reported IC50 for COc1ccc(Cn2nncc2-c2cc(OC)c(OC)c(OC)c2)cc1O was 1.83 µM

Reported IC50 for COc1ccc(-c2cn(Cc3cc(OC)c(OC)c(OC)c3)nn2)cc1O was > 10 µM

Reported IC50 for COc1ccc(-n2cc(-c3cc(OC)c(OC)c(OC)c3)nn2)cc1Br was > 10 µM

// data source = ChEMBL document CHEMBL1221348
